Reported z-score values for the following compounds.
test: modulators of S6 phosphorylation in cells, primary screen, cell-based, A549, cytoblot, luminescence, serum-stimulated (AID 1158); details: A549 phospho-S6 cytoblot, 5 h, higher = more signal;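 further: serum-stimulated A549 lung adenocarcinoma cells; signal is phosphorylated S6 detected by cytoblot immunostaining with HRP secondary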

Would you please look over these solved cases?
• CCCNC(=O)OC[C@H]1O[C@H](CCON=C[C@@H](C)[C@H](OCc2ccccc2)C(C)C)C=C[C@@H]1Oc1ccc(OC)cc1 = 2.11
• O=C1[C@H]2[C@H]3[C@H](O)[C@H](O)CC(=NOC[C@@H](O)COCc4ccco4)[C@@H]3CC[C@H]2C(=O)N1C1CCCCC1 = -0.9
• CC(C)C(=O)N[C@H]1CCCN1C(=O)C=Cc1ccccc1 = -0.53

Task: For CCOC(=O)[C@H](Cc1ccccc1)NC(=O)CCC1CC(OC(=O)NCc2ccc3c(c2)OCO3)CC2(CCCC(COC(=O)NCCOc3ccccc3)O2)O1 (some centres not stated) , write its z-score.
Result: -0.138

Task: For CC#CCOCCC=C1c2ccccc2[C@@H](OC)[C@@H]1C , write its z-score.
Result: -0.161

Task: For CC(C)=CCCC(C)=CCON=C1C[C@@H](O)[C@@H](O)[C@@H]2[C@@H]3C(=O)N(Cc4ccc5c(c4)OCO5)C(=O)[C@@H]3CC[C@H]12 , write its z-score.
Result: -0.429

Task: For CC(C)(C)N1C(=O)[C@H]2[C@H]3[C@H](O)[C@H](O)CC(=NOC[C@@H](O)COCc4ccco4)[C@@H]3CC[C@H]2C1=O , write its z-score.
Result: -0.151

* * *

Reported composite z-score values for the following compounds.
test system: wheat germ agglutinin (Triticum aestivum), Alexa647-labelled; assay: wheat germ agglutinin binders on compound microarrays, profiling panel, artefact control for SMM control-protein annotation, biochemical, small-molecule microarray, 635/667 nm fluorescence (AID 1140); details: WGA-A647 binding, 635 nm fluorescence, higher = more signal;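 further: score merges 667 nm feature emission with signal to noise over triplicate slides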
Write the number on its own, no unit after it.

Would you please look over these solved cases?
• CC(CCC(=O)OC[C@H]1O[C@H](C#Cc2ccccc2)C=C[C@@H]1Oc1ccc(C)cc1)=NOC(C)CN1CCCCc2nc(C)c(C)cc21 (some centres not stated) = 0.222
• CC(CCC(=O)OC[C@H]1O[C@H](C#Cc2ccccc2)C=C[C@@H]1Oc1ccc(C)cc1)=NO[C@@H](C)c1cc(-c2c(C)cc(C)cc2C)no1 = 0.848
• O=C1[C@H]2[C@H]3[C@H](O)[C@H](O)CC(=NOC[C@@H](O)COCc4ccco4)[C@@H]3CC[C@H]2C(=O)N1Cc1ccc2c(c1)OCO2 = -0.63
• COC(=O)[C@H](C)NC(=O)CCC1CC(OC(=O)NCc2cccc3ccccc23)CC2(CCCC(COC(=O)NCCc3ccccc3OC)O2)O1 (some centres not stated) = 0.316

Task: For CCOC(=O)[C@H](CC(C)C)NC(=O)CCC1CC(OC(=O)NCc2ccc3c(c2)OCO3)CC2(CCCC(COC(=O)NCCOc3ccccc3)O2)O1 (some centres not stated) , write its composite z-score.
Result: 0.598

Task: For CON(C)C(=O)c1nnc2c(n1)[nH]c1ccccc12 , write its composite z-score.
Result: 0.816

Task: For CCOC(=O)NN=C1C[C@@H](O)[C@@H](O)[C@@H]2[C@@H]3C(=O)N(C[C@@H]4CCCO4)C(=O)[C@@H]3CC[C@H]12 , write its composite z-score.
Result: 0.0337

* * *

Reported composite z-score values for the following compounds.
experiment: small-molecule binders of probe aNOTCH2, primary screen, biochemical, small-molecule microarray, 635/667 nm fluorescence (AID 1121); settings: higher = more signal;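 further: score merges feature fluorescence read at 667 nm with its signal to noise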
Write the number on its own, no unit after it.

Would you please look over these solved cases?
* COC(=O)CC=C[C@@H](C)[C@@H](C=NOC[C@@H](O)COCc1ccco1)NS(=O)(=O)c1ccc(C)cc1 | -0.0854
* O=C1C2=CC[C@H]3C(=O)N(c4ccc(F)cc4F)C(=O)[C@H]3[C@H]2[C@H](O)[C@@H]2O[C@H]12 | -0.118
* O=C1[C@H]2[C@H]3[C@H](O)[C@H](O)CC(=NOCc4ccccc4)[C@H]3CC[C@H]2C(=O)N1C1CCCCC1 | -0.14
* CON=C(C)CCN1CCc2nc(-c3ccccc3)c(-c3ccccc3)cc2C1 | -0.0829
* CC(CCC(=O)OC[C@H]1O[C@H](C#Cc2ccccc2)C=C[C@@H]1Oc1ccc(C)cc1)=NOC(C)CN1CCCCc2nc(C)c(C)cc21 (stereo not given in full) | 0.161
* CCN1C(=O)[C@H]2[C@H]3[C@H](O)[C@H](O)CC(=NOC[C@@H](O)[C@H]4O[C@@H]5OC(C)(C)O[C@@H]5[C@H]4O)[C@@H]3CC[C@H]2C1=O | -0.0662
* CCN1C(=O)[C@H]2[C@H]3[C@H](O)[C@H](O)CC(=NOCC[C@@H]4C=C[C@H](OC(C)=O)[C@@H](COC(C)=O)O4)[C@@H]3CC[C@H]2C1=O | -0.12
* CC=CC1=C(CO)[C@H](O)[C@H]2O[C@H]2[C@@H]1O | -0.141

Task: For CCc1cc2c(nc1CC)CCN(CCC(C)=NOC(C)CN1CCCCc3nc(C)c(C)cc31)C2 (stereo not given) , write its composite z-score.
Result: -0.0194

Task: For COC(=O)[C@@H]1CC[C@H](C)[C@@H](c2ccc(C)cc2)N1C(=O)c1ccc(C=NOC[C@@H](O)[C@H]2O[C@@H]3OC(C)(C)O[C@@H]3[C@H]2O)cc1 , write its composite z-score.
Result: -0.128

Task: For CCOC(=O)[C@H](Cc1ccccc1)NC(=O)CCC1CC(OC(=O)NCc2cccc3ccccc23)CC2(CCCC(COC(=O)NCCc3ccccc3OC)O2)O1 (stereo not given in full) , write its composite z-score.
Result: -0.126

* * *

molecular target: Focal adhesion kinase 1 (Homo sapiens); test: small-molecule microarray binders of FAK, primary screen, biochemical, 635/667 nm fluorescence, BSA, DTT (AID 1130); details: PTK2 binding, 635 nm fluorescence, higher = more signal;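 further: composite of spot emission at 667 nm and signal to noise over triplicate slides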
Note to self: values exactly at -0.07 are true. So composite z-score at or above -0.07 is true, below is false.

• O=C1[C@H]2[C@H]3[C@H](O)[C@H](O)CC(=NO[C@@H]4O[C@H](CO)[C@@H](O)[C@H](O)[C@H]4O)[C@H]3CC[C@H]2C(=O)N1C[C@@H]1CCCO1 = false
• O=C1[C@H]2[C@H]3[C@H](O)[C@H](O)CC(=NOCc4ccccc4)[C@@H]3CC[C@H]2C(=O)N1c1cccc(Oc2ccccc2)c1 = true
• CC(=O)OC[C@H]1O[C@@H](ON=C(C)C)[C@H](OC(C)=O)[C@@H](OC(C)=O)[C@@H]1OC(C)=O = false

Task: Could you verify whether the entry CC(CCC(=O)OC[C@H]1O[C@H](C#Cc2ccccc2)C=C[C@@H]1Oc1ccc(C)cc1)=NOC(C)CN1CCCCc2nc(C)c(C)cc21 (some centres not stated) shows composite z-score of no less than -0.07?
Result: true

Task: Could you verify whether the entry CCCC[C@H]1CN2[C@@H](CC[C@@H](C)[C@@H]2c2ccc(Br)cc2)C(=O)O1 shows composite z-score of no less than -0.07?
Result: true

Task: Could you verify whether the entry C=CC[C@@H]1C=C[C@H](ON=CC[C@@H]2C=C[C@H](OC(C)=O)[C@@H](COC(C)=O)O2)[C@@H](CO)O1 shows composite z-score of no less than -0.07?
Result: false

* * *

assay: osmotic lysis modulators in infected erythrocytes, primary screen, PSAC antagonist project, cell-based, P. falciparum Indochina, OD700, 3 h (AID 1156); settings: higher = more signal, called active from +8 up or from −8 down
Reported z-score values for the following compounds.
Write the number on its own, no unit after it.

Task: For Cc1cc2c(nc1C)CCCCN2CC(O)CN1CCCc2nc(-c3ccc(Br)cc3)ccc21 (centres undefined) , write its z-score.
Result: 0.0577

Task: For Cc1ccc(C(C)C)n1C(=O)OC(C)(C)C , write its z-score.
Result: -0.165

Task: For COC(=O)[C@H](C)NC(=O)CCC1CC(OC(=O)NCc2ccc3c(c2)OCO3)CC2(CCCC(COC(=O)NCCCN3CCCC3=O)O2)O1 (some centres undefined) , write its z-score.
Result: -0.257

Task: For COc1ccc(COC(=O)NN=C2C[C@@H](O)[C@@H](O)[C@@H]3[C@@H]4C(=O)N(C5CCCCC5)C(=O)[C@@H]4CC[C@@H]23)cc1 , write its z-score.
Result: 0.101

* * *

Reported composite z-score values for the following compounds.
tested on: Plasmodium falciparum Sir2 (PF13_0152, Sir2A); assay: pfSir2 binders on small-molecule microarrays, primary screen, biochemical, small-molecule microarray, 635 nm fluorescence (AID 1098); details: small-molecule microarray binding, fluorescence 635 nm; higher = more signal;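 further: score merges spot fluorescence intensity with its signal-to-noise ratio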
Write the number on its own, no unit after it.

Would you please look over these solved cases?
- O=C1[C@H]2[C@H]3[C@H](O)[C@H](O)CC(=NOCc4ccccc4)[C@H]3CC[C@H]2C(=O)N1C1CCCCC1: 0.817
- CC(C)C(=O)N[C@H]1CCCN1C(=O)C=Cc1ccccc1: 0.0571
- COC(=O)[C@@H]1CC[C@H](C)[C@@H](c2ccc(Br)cc2)N1: -0.725

Task: State the measured composite z-score (Plasmodium falciparum Sir2 (PF13_0152, Sir2A)) of CCN1C(=O)[C@H]2[C@H]3[C@H](O)[C@H](O)CC(=NOCC[C@@H]4C=C[C@H](OC(C)=O)[C@@H](COC(C)=O)O4)[C@@H]3CC[C@H]2C1=O
Result: 0.0458

Task: State the measured composite z-score (Plasmodium falciparum Sir2 (PF13_0152, Sir2A)) of C[C@@H]1C=CCC(=O)OC[C@H](C)C(=O)N[C@@H](Cc2ccccc2)C(=O)OC1
Result: -0.0137

Task: State the measured composite z-score (Plasmodium falciparum Sir2 (PF13_0152, Sir2A)) of COC(=O)[C@H](CCSC)NC(=O)CC=C[C@@H](C)CO
Result: -0.0481

Task: State the measured composite z-score (Plasmodium falciparum Sir2 (PF13_0152, Sir2A)) of CCOC(=O)[C@H](CC(C)C)NC(=O)CCC1CC(OC(=O)NCCc2ccc(F)cc2)CC2(CCCC(COC(=O)NCCCN3CCCC3=O)O2)O1 (some centres undefined)
Result: -0.0927

Task: State the measured composite z-score (Plasmodium falciparum Sir2 (PF13_0152, Sir2A)) of COc1ccc(O[C@H]2C=C[C@@H](c3ccccc3)O[C@@H]2COC(=O)NCc2cccc3ccccc23)cc1
Result: -0.101

Task: State the measured composite z-score (Plasmodium falciparum Sir2 (PF13_0152, Sir2A)) of COc1ccc(-c2cnnc(CCCn3ccnc3-c3ccccc3)n2)cc1
Result: 0.442
